system-under-test: K103NNY181C mutant reverse transcriptase (Human immunodeficiency virus type 1 group M subtype B, UniProt P04585, K690N/Y768C)
Construct: mutations that occur in the reverse transcriptase segment of the pol gene
assay-comment: Reverse transcriptase enzymatic assay (PicoGreen), K103N/Y181C mutant RT
Format: biochemical, HIV-1
experimental-setup: IC50 mut, K103N/Y181C mutant reverse transcriptase, enzymatic assay of Example 24
value-type: pIC50
// returns pIC50 (minus log10 of molar concentration), number only

Examples from the recorded data:
> print(dat)
                                   compound  experimental.value
1  CC(C)(C#Cc1ccc(NC(=O)CSc2nnnn2-c2ccc(C3CC3)cc2Cl)c(Cl)c1)NC(=O)CNc1ccncc1 [Compound 4188]                7.62
2  CC(C)(C#Cc1ccc(NC(=O)CSc2nnnn2-c2ccccc2Cl)c(Cl)c1)C(=O)O [Compound 4207]                6.35
3  CN(C)c1ccc(CNC(=O)C(C)(C)C#Cc2ccc(NC(=O)CSc3nnnn3-c3ccc(C4CC4)cc3Cl)c(Cl)c2)cc1 [Compound 4153]                6.90
4  CC(C)(C)c1ccc(-n2nnnc2SCC(=O)Nc2ccc(C#CCCCCO)cc2Cl)c(Cl)c1 [Compound 4003]                6.19
5  CN1CCN(CC2(C#Cc3ccc(NC(=O)CSc4nnnn4-c4ccc(C5CC5)cc4Cl)c(Cl)c3)CC2)CC1 [Compound 4094]                7.31
6  CC(C)(C)c1ccc(-n2nnnc2SCC(=O)Nc2ccc(C#CC3CC3)cc2Cl)c(Cl)c1 [Compound 4032]                7.41

Look up and state reported pIC50 for CN(C)CCCC(=O)NC(C)(C)C#Cc1ccc(NC(=O)CSc2nnnn2-c2ccc(C3CC3)cc2Cl)c(Cl)c1 [Compound 4108]
7.57

Could you please provide reported pIC50 for COC(C)(C)C#Cc1ccc(NC(=O)CSc2nnnn2-c2ccc(C3CC3)cc2Cl)c(Cl)c1 [Compound 4074] ? Thanks!
7.45

Tell me pIC50 reported for CC(C)(C#Cc1ccc(NC(=O)CSc2nnnn2-c2cc(Cl)c(C3CC3)cc2Cl)c(Cl)c1)C(=O)O [Compound 4206]
6.82

Return reported pIC50. Input compound: CC(C)(C#Cc1ccc(NC(=O)CSc2nnnn2-c2cc(C(F)(F)F)ccc2Cl)c(Cl)c1F)C(=O)O [Compound 4101]
7.24

Assign pIC50 to the following record: CC(C)(C#Cc1ccc(NC(=O)CSc2nnnn2-c2ccc(C3(C)CC3)cc2Cl)c(Cl)c1)C(=O)O [Compound 4173]
7.29

Provide one value: measured pIC50 of CC(C)(C#Cc1ccc(NC(=O)CSc2nnnn2-c2cc(C3CC3)ccc2Cl)c(Cl)c1F)OCCN1CCNCC1 [Compound 4209]
7.34

Give the value of pIC50 reported for the following: CC(C)(C#Cc1ccc(NC(=O)CSc2nnnn2-c2cc(C(C)(C)C)ccc2Cl)c(Cl)c1)C(=O)O [Compound 4200]
7.45

Provide pIC50 value for the following compound: CC(C)(C#Cc1ccc(NC(=O)CSc2nnnn2-c2ccc(C3CC3)cc2Cl)c(Cl)c1F)NC(=O)CN1CCNCC1 [Compound 4198]
7.66

Fill in pIC50 for record CC(C)(C#Cc1ccc(NC(=O)CSc2nnnn2-c2cc(C(F)(F)F)ccc2Cl)c(Cl)c1F)OCCOc1ccncc1 [Compound 4166]
6.90

Specify reported pIC50 for the compound shown: CC(C)(C#Cc1ccc(NC(=O)CSc2nnnn2-c2cccc(C3CC3)c2Cl)c(Cl)c1)C(=O)O [Compound 4179]
6.33

Return pIC50 (reported value) for this compound: CC(C)(C#Cc1ccc(NC(=O)CSc2nnnn2-c2ccc(C(C)(C)C)cc2Cl)c(Cl)c1)C(=O)NCCN1CCOCC1 [Compound 4013]
7.21

Quickly give me recorded pIC50 for CCN(CC)CC#Cc1ccc(NC(=O)CSc2nnnn2-c2ccc(C(C)(C)C)cc2Cl)c(Cl)c1 [Compound 4008]
7.03

Retrieve pIC50 measured for CC(C)(C#Cc1ccc(NC(=O)CSc2nnnn2-c2ccc(C3CC3)cc2Cl)c(Cl)c1)C(=O)NCC1CCCO1 (stereo not shown) [Compound 4146] and print it.
7.43

Identify the reported pIC50 for the following entry. Cc1cc(Cl)c(-n2nnnc2SCC(=O)Nc2ccc(C#CC(C)(C)O)cc2Cl)cc1C(F)(F)F [Compound 4060]
7.38

---

// reported IC50 for each item listed
system-under-test: K103NNY181C mutant reverse transcriptase (Human immunodeficiency virus type 1 group M subtype B, UniProt P04585, K690N/Y768C)
Construct: mutations that occur in the reverse transcriptase segment of the pol gene
assay-comment: Reverse transcriptase enzymatic assay (PicoGreen), K103N/Y181C mutant RT
Format: biochemical, HIV-1
experimental-setup: IC50 mut, mutant reverse transcriptase, enzymatic assay of Example 24
Reply numerically in nM, unit not repeated.

Sample records with IC50:
> print(dat)
                      smiles.representation  experimental.value
1  CC(C)(C)c1ccc(-n2nnnc2SCC(=O)Nc2ccc(C(=O)Nc3ccc(C(=O)O)cc3)cc2Cl)c(Cl)c1                  34
2  CC(C)(C)c1ccc(-n2nnnc2SCC(=O)Nc2ccc(OCC(=O)NCc3ccc(C(=O)O)cc3)cc2Cl)c(Cl)c1                  51
3  CN1CCN(C(=O)COc2ccc(NC(=O)CSc3nnnn3-c3ccc(C(C)(C)C)cc3Cl)c(Cl)c2)CC1                  48

Now turn to the next compound.
Provide one value: measured IC50 of CC(C)(C)c1ccc(-n2nnnc2SCC(=O)Nc2ccc(C(=O)NCCC(=O)O)cc2Cl)c(Cl)c1
41

---

// reported IC50 per item
system-under-test: K103NNY181C mutant reverse transcriptase (Human immunodeficiency virus type 1 group M subtype B, UniProt P04585, K690N/Y768C)
Construct: mutations that occur in the reverse transcriptase segment of the pol gene
assay-comment: Reverse transcriptase enzymatic assay (PicoGreen), K103N/Y181C mutant RT
Format: biochemical, HIV-1
experimental-setup: IC50 mut, K103N/Y181C mutant reverse transcriptase, enzymatic assay of Example 24
Numeric answer only, unit nM assumed.

Example entries and their recorded answers appear below.
> print(dat)
                      smiles.representation  experimental.value
1  CC(C)(C#Cc1ccc(NC(=O)CSc2nnnn2-c2ccc(C3CC3)cc2Cl)c(Cl)c1)NC(=O)N1CCNCC1                  30
2  Cc1cc(C(F)(F)F)cc(-n2nnnc2SCC(=O)Nc2ccc(C#CC(C)(C)C(=O)O)cc2Cl)c1Cl                  63
3  CC(C)(C#Cc1ccc(NC(=O)CSc2nnnn2-c2ccc(C3CC3)cc2Cl)c(Cl)c1F)OCCN1CCC(F)(F)C1                90.5
4  CC(C)(C#Cc1ccc(NC(=O)CSc2nnnn2-c2ccc(C3CC3)cc2Cl)c(Cl)c1)NCc1cc[n+]([O-])cc1                  12
5  CC(C)(C#Cc1ccc(NC(=O)CSc2nnnn2-c2cc(C(F)(F)F)ccc2Cl)c(Cl)c1)C(=O)O                 198
6  CC(C)(C)c1ccc(-n2nnnc2SCC(=O)Nc2ccc(C#CCOC(N)=O)cc2Cl)c(Cl)c1                 8.9

Continue with the compound presented below.
Answer with reported IC50 of CC(C)(C#Cc1ccc(NC(=O)CSc2nnnn2-c2ccc(C3CC3)cc2Cl)c(Cl)c1)NC(=O)Cn1cncn1
10.8

---

IC50: recorded values
system-under-test: K103NNY181C mutant reverse transcriptase (Human immunodeficiency virus type 1 group M subtype B, UniProt P04585, K690N/Y768C)
Construct: mutations that occur in the reverse transcriptase segment of the pol gene
assay-comment: Reverse transcriptase enzymatic assay (PicoGreen), K103N/Y181C mutant RT
Format: biochemical, HIV-1
experimental-setup: IC50 mut, K103N/Y181C mutant reverse transcriptase, enzymatic assay of Example 24
Procedure: The enzymatic assay employed is described as follows: The reverse transcriptase (RT) enzyme assay has been adapted to a 96-well microtiter plate format and uses PicoGreen™ as a fluorescent intercalator. […] The plate was then analyzed using a POLARstar Galaxy fluorometer (BMG Labtechnologies) with λex and λem of 485 nm and 520 nm respectively. Each well was read for 1.25 second. […]
Lab book: enter the figure in nM, no units written.

Example results:
> print(dat)
                      smiles.representation  result.units  experimental.value
1  CC(C)(C#Cc1ccc(NC(=O)CSc2nnnn2-c2cc(C3CC3)ccc2Cl)c(Cl)c1)NC(=O)c1cc[n+]([O-])cc1            nM                 6.9
2  CC(C)(C#Cc1ccc(NC(=O)CSc2nnnn2-c2ccc(C(C)(C)C)cc2Cl)c(Cl)c1)OCC(=O)Nc1ccccc1            nM                 296
3  CC(C)(C#Cc1ccc(NC(=O)CSc2nnnn2-c2ccc(C3CC3)cc2Cl)c(Cl)c1)NC(=O)CN1CCN(CCn2cccc2)CC1            nM                  78
4  Cc1ccc(-n2nnnc2SCC(=O)Nc2ccc(C#CC(C)(C)O)cc2Cl)c(Cl)c1C(F)(F)F            nM                 656
5  CC(C)(O)C#Cc1ccc(NC(=O)CSc2nnnn2-c2ccc(C(C)(C)C)cc2Cl)c(Cl)c1            nM                  20

Tell me its IC50 given CC(C)(C#Cc1ccc(NC(=O)CSc2nnnn2-c2ccc(C(C)(C)C)cc2Cl)c(Cl)c1)OCC(=O)NCc1ccco1 as the entry.
66

Report IC50, nothing else, for this molecule: O=C(CSc1nnnn1-c1ccc(C2CC2)cc1Cl)Nc1ccc(C#CC2(CO)CC2)cc1Cl
29
